MEASUREMENT_TARGET: Lck (h) (Homo sapiens, UniProt P06239)
Sequence (P06239 whole entry): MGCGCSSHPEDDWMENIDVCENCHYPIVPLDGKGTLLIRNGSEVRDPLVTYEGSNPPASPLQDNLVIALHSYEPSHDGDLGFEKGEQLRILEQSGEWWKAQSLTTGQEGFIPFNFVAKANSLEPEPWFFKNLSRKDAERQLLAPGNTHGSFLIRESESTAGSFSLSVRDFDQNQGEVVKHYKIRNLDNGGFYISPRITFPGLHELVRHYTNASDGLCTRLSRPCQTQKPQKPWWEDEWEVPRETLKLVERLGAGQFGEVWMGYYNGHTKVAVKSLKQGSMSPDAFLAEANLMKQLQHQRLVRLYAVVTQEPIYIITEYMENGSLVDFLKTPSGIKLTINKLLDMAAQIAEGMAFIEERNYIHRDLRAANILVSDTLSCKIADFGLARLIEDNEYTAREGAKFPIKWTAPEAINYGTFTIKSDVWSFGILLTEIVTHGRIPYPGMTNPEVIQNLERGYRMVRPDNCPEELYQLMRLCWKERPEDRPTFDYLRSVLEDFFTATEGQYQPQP
EXPERIMENT_DESCRIPTION: Lck human STE kinase enzymatic radiometric assay
Assay type: biochemical
CONDITION: read-out: Lck IC50 nM Range
Recorded IC50 by entry

For orientation, consider the following solved cases.
• CC(C)N1CCN(c2ccc(-c3nc(-c4ccc5c(c4)C4(CC4)CNC5=O)c(N)nc3F)cc2)CC1 = 101 to 1000 nM
• CC(C)N1CCN(c2ccc(-c3nc(-c4ccc5c(c4)CCNC5=O)c(N)nc3Cl)cc2)CC1 = > 1000 nM
• CC(C)N1CCN(c2ccc(-c3nc(-c4cc5c(cc4F)C(=O)NCC5)c(N)nc3Cl)cc2)CC1 = > 1000 nM
• CCN(C)Cc1cc(-c2nc(-c3cc(F)c4c(c3)CCNC4=O)c(N)nc2F)ccc1C1CCOCC1 = > 1000 nM
• CN1C[C@@H]2C[C@]2(c2ccc(-c3nc(-c4ccc5c(=O)[nH]cc(F)c5c4)c(N)nc3F)cc2)C1 = > 1000 nM

So what's the measured IC50 for this one? `CC(C)N1CCN(c2ccc(-c3nc(-c4ccc5c(=O)[nH]ccc5c4)c(N)nc3F)cc2)CC1`
> 1000 nM

Would you mind doing `Nc1nc(F)c(-c2ccc(C3CCOCC3)c(CN3CCC3)c2)nc1-c1cc(F)c2c(c1)CCNC2=O` as well?
101 to 1000 nM

Would you mind doing CNCC1Cc2cc(-c3nc(-c4ccc(N5CCOCC5)cc4)c(F)nc3N)ccc2C(=O)N1 (stereo not drawn) as well?
> 1000 nM
